Values were extracted from paper PMC9871955.

TARGET_ENTITY: SARS-CoV-2 M^pro (Severe acute respiratory syndrome coronavirus 2)
ASSAY_INFO: biochemical
RUN_CONDITIONS: IC50 (μM) at S/KM 1/2
MEASURED_ATTRIBUTE: IC50 (µM)
Only the number, expressed in µM, is required.

>  <COMPOUND>
CCOc1cc(C(=O)NCc2n[nH]c(=S)n2-c2ccc(Br)cc2)cc(OCC)c1OCC [JK0109-B004]

>  <TARGET_ENTITY>
SARS-CoV-2 M^pro (Severe acute respiratory syndrome coronavirus 2)

>  <UNIT_OF_MEASURE>
µM

>  <RESULT>
1.01

$$$$
>  <COMPOUND>
O=C1NC(=O)C(=Cc2ccc(-c3cccc(Cl)c3)o2)C(=O)N1 [RUS0245-E010]

>  <TARGET_ENTITY>
SARS-CoV-2 M^pro (Severe acute respiratory syndrome coronavirus 2)

>  <UNIT_OF_MEASURE>
µM

>  <RESULT>
0.34

$$$$
>  <COMPOUND>
O=c1sc2ccccc2n1Cc1n[nH]c(=S)n1-c1ccccc1 [JK0946-F007]

>  <TARGET_ENTITY>
SARS-CoV-2 M^pro (Severe acute respiratory syndrome coronavirus 2)

>  <UNIT_OF_MEASURE>
µM

>  <RESULT>
3.56

$$$$
>  <COMPOUND>
O=C1NC(=O)N(Cc2ccccc2)C(=O)C1=Cc1ccco1 [WNN3797-H008]

>  <TARGET_ENTITY>
SARS-CoV-2 M^pro (Severe acute respiratory syndrome coronavirus 2)

>  <UNIT_OF_MEASURE>
µM

>  <RESULT>
0.67

$$$$
>  <COMPOUND>
O=C(COc1ccc(Cl)cc1)NCc1n[nH]c(=S)n1-c1ccc(Br)cc1 [JK0109-H005]

>  <TARGET_ENTITY>
SARS-CoV-2 M^pro (Severe acute respiratory syndrome coronavirus 2)

>  <UNIT_OF_MEASURE>
µM

>  <RESULT>
1.33

$$$$

Lab note: need IC50 for COc1ccc(-n2c(S)nnc2CNC(=O)c2cc(OC)c(OC)c(OC)c2)cc1 [JK0109-C011] on SARS-CoV-2 M^pro (Severe acute respiratory syndrome coronavirus 2), anyone have it?
2.3

Lab note: need IC50 for COc1ccc(-n2c(CNC(=O)COc3ccc(Cl)cc3Cl)n[nH]c2=S)cc1 [JK0109-B011] on SARS-CoV-2 M^pro (Severe acute respiratory syndrome coronavirus 2), anyone have it?
1.33

Lab note: need IC50 for O=C1NC(=O)C(=Cc2ccc(-c3cccc(Cl)c3Cl)o2)C(=O)N1 [WNN3989-H007] on SARS-CoV-2 M^pro (Severe acute respiratory syndrome coronavirus 2), anyone have it?
0.11

----------
TARGET_ENTITY: SARS-CoV-2 M^pro (Severe acute respiratory syndrome coronavirus 2, UniProt P0DTD1)
ASSAY_INFO: biochemical
RUN_CONDITIONS: read-out: IC50 (μM) at S/KM 1
MEASURED_ATTRIBUTE: IC50 (µM)
Only the number, expressed in µM, is required.

Please report the recorded IC50 for COc1ccc(CN2C(=O)NC(=O)/C(=C\c3ccco3)C2=O)cc1 [CDE0972-G011] .
2.86

----------
TARGET_ENTITY: SARS-CoV-2 M^pro (Severe acute respiratory syndrome coronavirus 2, UniProt P0DTD1)
ASSAY_INFO: biochemical
RUN_CONDITIONS: Table S1, M^pro inhibitors; 40 nmol/L enzyme, 20 µmol/L substrate; read-out: IC50
MEASURED_ATTRIBUTE: IC50 (nM)
Only the number, expressed in nM, is required.

Below, 5 molecules whose answers are already recorded.
>  <MOLECULE>
O=C1NC(=O)C(=Cc2ccc(-c3cccc(C(F)(F)F)c3)o2)C(=O)N1 [WNN3953-B007]

>  <IC50 (nM)>
160

$$$$
>  <MOLECULE>
O=C1NC(=O)N(Cc2ccccc2)C(=O)C1=Cc1ccco1 [WNN3797-H008]

>  <IC50 (nM)>
172

$$$$
>  <MOLECULE>
O=C1NC(=O)C(=Cc2ccc(-c3cccc(Cl)c3Cl)o2)C(=O)N1 [WNN3989-H007]

>  <IC50 (nM)>
552

$$$$
>  <MOLECULE>
O=C(Oc1cncc(Cl)c1)c1sccc1Cl [WNN2048-F004]

>  <IC50 (nM)>
131

$$$$
>  <MOLECULE>
COc1ccc(-n2c(S)nnc2CNc2ccc(C)cc2)cc1 [RUS0105-C005]

>  <IC50 (nM)>
478

$$$$

Please report the recorded IC50 for O=C1NC(=O)C(=Cc2ccc(-c3cccc(Cl)c3)o2)C(=O)N1 [RUS0245-E010] .
196

Please report the recorded IC50 for Cc1ccc(NCc2n[nH]c(=S)n2-c2ccccc2)cc1 [WNN2867-E005] .
466
